System: T47D cells
Test: Cell-based assay: anti-proliferative activity, Cell Counting Kit-8, 72 hours (T47D)
Conditions: Homo sapiens, T47D, 72 h
Where a name gives a salt, the structure may show the parent alone.
Below, each of the molecules is paired with its reported IC50 value.
Write the value in µM as a bare number.

[[record]]
molecule = "COc1cc(-c2ccc3ncc(C(=O)C4CC4)c(Nc4cccc(CN(C)C)c4)c3c2)cc(Cl)c1O"
readout_type = "IC50"
observed_value = 1.1


Tell me the measured IC50 of O=C(c1cnc2ccc(-c3cc(Cl)c(O)c(Cl)c3)cc2c1Nc1ccc(NC2CCCNC2)nc1)C1CC1 (stereo not drawn) , please.
0.22

// next record `COc1cc(-c2ccc3ncc(C(=O)C4CC4)c(Nc4ccc(CN(C)C)cn4)c3c2)cc(Cl)c1O`
3.8

// next record `CC(=O)c1cnc2ccc(-c3cc(Cl)c(O)c(Cl)c3)cc2c1N[C@@H]1CC[C@@H](CN(C)C)C1`
0.36

// next record `CN1CCN(C(=O)CNc2c(C(=O)C3CC3)cnc3ccc(-c4ccc(O)c(Cl)c4)cc23)CC1`
2.6

// next record `CCC(=O)c1cnc2ccc(-c3cc(Cl)c(O)c(OC)c3)cc2c1N[C@H]1CC[C@H](CN(C)C)CC1`
0.2

// next record CC(C)(N)c1ccc(Nc2c(C(=O)C3CC3)cnc3ccc(-c4cc(Cl)c(O)c(Cl)c4)cc23)cc1 [Example 601, hydrochloride]
0.09

// next record `CCCC(=O)c1cnc2ccc(-c3cc(F)c(O)c(Cl)c3)cc2c1N[C@H]1CC[C@H](CN(C)C)CC1`
0.11

// next record CCC(=O)c1cnc2ccc(-c3cc(F)c(O)c(Cl)c3)cc2c1Nc1ccc(N2CCC(N(C)C)C2)nc1 (stereo not drawn)
0.14

// next record `COc1cc(-c2ccc3ncc(C(=O)C4CC4)c(Nc4ccc(N)nc4)c3c2)cc(Cl)c1O`
0.61

// next record CC(=O)c1cnc2ccc(-c3cc(Cl)c(O)c(Cl)c3)cc2c1N[C@H]1CC[C@H](NC(=O)C(N)C(C)C)CC1 (stereo partly drawn)
0.053
